Emax ratio to BG87P listing for selected binders.
Molecular target: T1, human claudin 6 (CLDN6) (human, UniProt P56747 1-220)
T1 construct: also called human CLDN6; hCLDN6
T1 sequence: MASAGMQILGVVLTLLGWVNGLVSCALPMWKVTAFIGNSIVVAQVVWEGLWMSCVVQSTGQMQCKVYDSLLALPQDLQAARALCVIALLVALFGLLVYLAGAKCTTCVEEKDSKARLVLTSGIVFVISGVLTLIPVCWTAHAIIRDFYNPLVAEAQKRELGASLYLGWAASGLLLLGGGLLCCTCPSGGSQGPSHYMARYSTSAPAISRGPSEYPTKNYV
Experiment: flow cytometry, HEK293T-human CLDN6 cells; ratio to chBG87P

{"BINDER": "BG87P-m5 (antibody, V domains shown, PTM removal variant of BG87P-Bz0) VH: QIQLVQSGAEVKKPGASVKVSCKASGYSFTDYHINWVRQAPGQRLEWMGWIYPGSGYTKYNEKFKVRVTLTVDTSASTAYMELSSLRSEDTAVYFCARSGIYHYVSSYYFEHWGKGTTVTVSS VL: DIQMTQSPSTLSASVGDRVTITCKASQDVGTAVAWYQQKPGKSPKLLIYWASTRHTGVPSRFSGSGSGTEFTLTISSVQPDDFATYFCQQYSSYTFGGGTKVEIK", "Emax ratio to BG87P": 0.66}
{"BINDER": "anti-CLDN6 chimeric BG87P (antibody, V domains shown, expressed in HEK293T; also called chBG87P; ChBG87P) VH: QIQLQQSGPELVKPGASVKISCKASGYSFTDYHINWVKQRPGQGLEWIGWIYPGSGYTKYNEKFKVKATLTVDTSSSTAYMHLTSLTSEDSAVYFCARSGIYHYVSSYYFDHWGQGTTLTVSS VL: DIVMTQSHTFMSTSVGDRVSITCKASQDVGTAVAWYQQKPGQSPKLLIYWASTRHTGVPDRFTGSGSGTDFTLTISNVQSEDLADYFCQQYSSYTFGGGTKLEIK", "Emax ratio to BG87P": 1}
{"BINDER": "BG87P-23 (antibody, V domains shown) VH: QIQLVQSGAEVKKPGASVKVSCKASGYSFTDYHINWVRQAPGQRLEWMGWIYPGSGYTKYNEKFKGRVTITRDTSASTAYMELSSLRSEDTAVYYCARSGIYHYVSSYYFDHWGKGTTVTVSS VL: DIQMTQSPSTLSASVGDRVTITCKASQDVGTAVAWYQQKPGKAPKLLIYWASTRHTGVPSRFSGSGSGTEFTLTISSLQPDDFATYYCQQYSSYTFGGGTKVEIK", "Emax ratio to BG87P": 0.77}
{"BINDER": "BG87P-25 (antibody, V domains shown) VH: QIQLVQSGAEVKKPGASVKVSCKASGYSFTDYHINWVRQAPGQRLEWMGWIYPGSGYTKYNEKFKGRVTLTRDTSASTAYMELSSLRSEDTAVYYCARSGIYHYVSSYYFDHWGKGTTVTVSS VL: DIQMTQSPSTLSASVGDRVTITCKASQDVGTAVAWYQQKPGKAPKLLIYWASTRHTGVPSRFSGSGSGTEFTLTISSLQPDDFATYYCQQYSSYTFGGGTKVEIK", "Emax ratio to BG87P": 0.74}
{"BINDER": "BG87P-Bz5 (antibody, V domains shown, also called BG87P-B25) VH: QIQLVQSGAEVKKPGASVKVSCKASGYSFTDYHINWVRQAPGQRLEWMGWIYPGSGYTKYNEKFKVRVTLTVDTSASTAYMELSSLRSEDTAVYYCARSGIYHYVSSYYFDHWGKGTTVTVSS VL: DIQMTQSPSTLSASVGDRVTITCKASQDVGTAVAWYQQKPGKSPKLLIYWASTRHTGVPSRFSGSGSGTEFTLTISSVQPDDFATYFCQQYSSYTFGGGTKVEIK", "Emax ratio to BG87P": 0.73}
{"BINDER": "BG87P-m8 (antibody, V domains shown, Variant of BG87P-Bz0 with H33A) VH: QIQLVQSGAEVKKPGASVKVSCKASGYSFTDYAINWVRQAPGQRLEWMGWIYPGSGYTKYNEKFKVRVTLTVDTSASTAYMELSSLRSEDTAVYFCARSGIYHYVSSYYFDHWGKGTTVTVSS VL: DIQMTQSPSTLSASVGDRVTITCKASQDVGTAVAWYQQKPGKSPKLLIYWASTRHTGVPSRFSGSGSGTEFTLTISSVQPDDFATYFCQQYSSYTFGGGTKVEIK", "Emax ratio to BG87P": 0.28}
{"BINDER": "BG87P-22 (antibody, V domains shown) VH: QVQLVQSGAEVKKPGASVKVSCKASGYSFTDYHINWVRQAPGQRLEWMGWIYPGSGYTKYNEKFKGRVTITRDTSASTAYMELSSLRSEDTAVYFCARSGIYHYVSSYYFDHWGKGTTVTVSS VL: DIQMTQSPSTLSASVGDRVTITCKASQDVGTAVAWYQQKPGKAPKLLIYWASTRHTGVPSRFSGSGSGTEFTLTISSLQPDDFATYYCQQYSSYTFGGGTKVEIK", "Emax ratio to BG87P": 0.71}
{"BINDER": "BG87P-24 (antibody, V domains shown) VH: QVQLVQSGAEVKKPGASVKVSCKASGYSFTDYHINWVRQAPGQRLEWMGWIYPGSGYTKYNEKFKGRVTLTRDTSASTAYMELSSLRSEDTAVYYCARSGIYHYVSSYYFDHWGKGTTVTVSS VL: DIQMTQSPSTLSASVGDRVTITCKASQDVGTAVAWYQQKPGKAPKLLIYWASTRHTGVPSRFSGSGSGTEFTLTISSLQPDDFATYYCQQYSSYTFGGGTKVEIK", "Emax ratio to BG87P": 0.73}
{"BINDER": "BG87P-m4 (antibody, V domains shown, Variant of chBG87P with H33A) VH: QIQLQQSGPELVKPGASVKISCKASGYSFTDYAINWVKQRPGQGLEWIGWIYPGSGYTKYNEKFKVKATLTVDTSSSTAYMHLTSLTSEDSAVYFCARSGIYHYVSSYYFDHWGQGTTLTVSS VL: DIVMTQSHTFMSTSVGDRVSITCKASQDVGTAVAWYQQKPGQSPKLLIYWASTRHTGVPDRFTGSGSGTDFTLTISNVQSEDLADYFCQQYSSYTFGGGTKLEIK", "Emax ratio to BG87P": 0.74}
{"BINDER": "BG87P-m6 (antibody, V domains shown, PTM removal variant of BG87P-Bz0) VH: QIQLVQSGAEVKKPGASVKVSCKASGYSFTDYHINWVRQAPGQRLEWMGWIYPGSGYTKYNEKFKVRVTLTVDTSASTAYMELSSLRSEDTAVYFCARSGIYHYVSSYYFQHWGKGTTVTVSS VL: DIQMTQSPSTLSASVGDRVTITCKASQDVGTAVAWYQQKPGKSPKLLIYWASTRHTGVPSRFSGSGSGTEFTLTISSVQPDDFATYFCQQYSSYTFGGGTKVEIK", "Emax ratio to BG87P": 0.62}
